What Fold change to WT was measured for each of the following?
Target: PD-L1 (human)
Sequence (chain, as listed by the source): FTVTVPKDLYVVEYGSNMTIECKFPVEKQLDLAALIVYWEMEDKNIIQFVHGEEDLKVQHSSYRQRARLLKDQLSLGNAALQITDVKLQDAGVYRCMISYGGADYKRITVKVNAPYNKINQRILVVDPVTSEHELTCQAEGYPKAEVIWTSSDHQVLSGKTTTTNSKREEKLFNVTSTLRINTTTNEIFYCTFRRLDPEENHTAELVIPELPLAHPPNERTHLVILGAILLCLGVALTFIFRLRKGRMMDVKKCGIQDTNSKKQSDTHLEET
Assay: flow cytometry, CHO cells stably expressing PD-L1
Kindly format the answer as number then unit.

// Fold change to WT value for CD80 variant H18Y/A26E/Q33L/E35D/M47L/L85Q IgV-Fc (Fc fusion) VIHVTKEVKEVATLSCGYNVSVEELEQTRIYWLKDKKMVLTMMSGDLNIWPEYKNRTIFDITNNLSIVILALRPSDEGTYECVVQKYEKDAFKREHLAEVT : 9.64 fold

// Fold change to WT value for CD80 variant Q33L/E35D/T41S/M43I IgV-Fc (Fc fusion) VIHVTKEVKEVATLSCGHNVSVEELAQTRIYWLKDKKMVLSMISGDMNIWPEYKNRTIFDITNNLSIVILALRPSDEGTYECVVLKYEKDAFKREHLAEVT : 5.66 fold

// Fold change to WT value for CD80 variant A26E/Q33L/E35D/M47L/L85Q IgV-Fc (Fc fusion) VIHVTKEVKEVATLSCGHNVSVEELEQTRIYWLKDKKMVLTMMSGDLNIWPEYKNRTIFDITNNLSIVILALRPSDEGTYECVVQKYEKDAFKREHLAEVT : 7.89 fold

// Fold change to WT value for CD80 variant Q33L/E35D/M47V/L85Q IgV-Fc (Fc fusion) VIHVTKEVKEVATLSCGHNVSVEELAQTRIYWLKDKKMVLTMMSGDVNIWPEYKNRTIFDITNNLSIVILALRPSDEGTYECVVQKYEKDAFKREHLAEVT : 5.97 fold
